Target: Integrin alpha-IIb/beta-3 (Homo sapiens, UniProt P05106+P08514)
Sequence (P05106 27-788 limits assumed): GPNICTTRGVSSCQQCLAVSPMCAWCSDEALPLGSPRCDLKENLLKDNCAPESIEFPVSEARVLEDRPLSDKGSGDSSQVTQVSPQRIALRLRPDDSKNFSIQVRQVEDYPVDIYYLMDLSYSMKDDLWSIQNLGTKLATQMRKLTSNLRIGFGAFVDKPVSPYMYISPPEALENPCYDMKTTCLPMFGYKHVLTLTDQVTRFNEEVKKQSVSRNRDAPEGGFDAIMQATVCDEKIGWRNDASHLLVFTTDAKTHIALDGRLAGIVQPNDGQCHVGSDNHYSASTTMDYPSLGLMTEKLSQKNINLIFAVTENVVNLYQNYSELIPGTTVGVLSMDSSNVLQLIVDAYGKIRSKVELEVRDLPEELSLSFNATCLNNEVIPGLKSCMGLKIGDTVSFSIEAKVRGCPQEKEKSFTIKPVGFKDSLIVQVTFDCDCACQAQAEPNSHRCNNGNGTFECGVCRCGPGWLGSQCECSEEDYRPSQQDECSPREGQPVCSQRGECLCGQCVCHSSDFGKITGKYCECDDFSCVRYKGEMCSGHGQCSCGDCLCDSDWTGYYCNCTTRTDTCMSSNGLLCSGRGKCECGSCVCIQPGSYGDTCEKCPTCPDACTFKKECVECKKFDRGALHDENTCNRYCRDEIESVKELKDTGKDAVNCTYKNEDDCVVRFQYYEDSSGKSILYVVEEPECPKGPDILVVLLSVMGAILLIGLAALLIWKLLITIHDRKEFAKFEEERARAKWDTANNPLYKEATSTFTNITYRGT
Sequence (P08514 32-887 limits assumed): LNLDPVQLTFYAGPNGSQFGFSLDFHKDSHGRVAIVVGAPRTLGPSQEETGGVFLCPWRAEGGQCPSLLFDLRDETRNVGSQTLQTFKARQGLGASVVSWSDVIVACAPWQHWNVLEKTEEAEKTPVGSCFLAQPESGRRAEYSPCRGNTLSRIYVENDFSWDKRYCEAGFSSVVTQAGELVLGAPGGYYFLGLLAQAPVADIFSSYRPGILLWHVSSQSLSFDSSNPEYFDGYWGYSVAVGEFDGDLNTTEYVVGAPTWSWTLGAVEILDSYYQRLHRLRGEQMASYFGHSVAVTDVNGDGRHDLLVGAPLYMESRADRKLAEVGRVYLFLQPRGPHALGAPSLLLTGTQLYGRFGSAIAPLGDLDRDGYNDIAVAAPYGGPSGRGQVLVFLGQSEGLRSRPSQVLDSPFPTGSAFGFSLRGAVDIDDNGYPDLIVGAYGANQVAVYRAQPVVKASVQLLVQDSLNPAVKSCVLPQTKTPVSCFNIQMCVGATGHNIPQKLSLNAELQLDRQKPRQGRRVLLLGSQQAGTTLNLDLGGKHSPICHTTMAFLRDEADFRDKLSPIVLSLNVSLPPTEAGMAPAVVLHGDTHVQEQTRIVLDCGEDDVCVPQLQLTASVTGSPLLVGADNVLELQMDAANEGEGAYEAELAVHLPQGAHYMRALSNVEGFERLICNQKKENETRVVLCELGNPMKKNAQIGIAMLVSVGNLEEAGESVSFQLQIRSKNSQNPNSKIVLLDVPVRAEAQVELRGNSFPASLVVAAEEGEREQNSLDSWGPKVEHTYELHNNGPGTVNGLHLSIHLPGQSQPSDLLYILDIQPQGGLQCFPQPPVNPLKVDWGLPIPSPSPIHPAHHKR
Sequence (P08514 891-1039 limits assumed): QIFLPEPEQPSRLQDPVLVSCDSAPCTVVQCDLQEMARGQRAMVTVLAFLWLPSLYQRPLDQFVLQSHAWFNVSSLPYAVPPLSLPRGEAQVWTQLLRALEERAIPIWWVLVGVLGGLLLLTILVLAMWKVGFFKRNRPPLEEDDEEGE
Assay: Inhibition of 125 I-fibrinogen binding to glycoprotein IIb/IIIa receptor
Type: protein-complex assay
assay_endpoint: pKi
pKi here is simply -log10 of the concentration when that concentration is written in mol/L.

Request: Consider the compound N=C(N)Nc1ccc(C2NC(=O)N(CC(=O)N[C@@H](CC(=O)O)C(=O)N[C@H](C(=O)O)c3ccccc3)C2=O)cc1 (stereo partly specified) and give its measured pKi.
Result: 7.52
